Recorded values, source ChEMBL document CHEMBL4732042.

Target: Amine oxidase [flavin-containing] B (Homo sapiens, UniProt P27338)
Sequence (P27338 whole entry): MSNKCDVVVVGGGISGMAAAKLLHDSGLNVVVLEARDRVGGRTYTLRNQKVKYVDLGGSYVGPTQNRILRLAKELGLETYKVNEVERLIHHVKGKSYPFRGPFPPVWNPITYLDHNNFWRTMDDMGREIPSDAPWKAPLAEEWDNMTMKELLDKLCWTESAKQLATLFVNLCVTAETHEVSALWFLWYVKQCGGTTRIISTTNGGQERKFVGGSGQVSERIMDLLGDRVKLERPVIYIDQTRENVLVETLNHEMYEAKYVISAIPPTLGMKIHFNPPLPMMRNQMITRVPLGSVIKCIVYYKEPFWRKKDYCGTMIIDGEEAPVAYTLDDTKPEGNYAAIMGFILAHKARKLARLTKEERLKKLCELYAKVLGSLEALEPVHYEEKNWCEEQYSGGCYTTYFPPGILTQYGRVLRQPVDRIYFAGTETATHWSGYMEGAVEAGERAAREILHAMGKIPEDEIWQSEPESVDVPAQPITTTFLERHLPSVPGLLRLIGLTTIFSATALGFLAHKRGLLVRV
Experiment: Inhibition of human MAO-B
Settings: read-out: IC50
Readings of IC50 for the listed compounds
Give a bare numeral; the unit µM is implied.

smiles	IC50 (µM)
O=c1ccoc2ccc(OCCCCN3CCCCC3)cc12	7.2

Continue with the compound presented below.
Incoming: State IC50 on Amine oxidase [flavin-containing] B (Homo sapiens, UniProt P27338). Entry: `O=c1ccoc2ccc(OCCCN3CCOCC3)cc12`
Outgoing: 1.18

====

Target: Sigma intracellular receptor 2 (Rattus norvegicus, UniProt Q5U3Y7)
Sequence (Q5U3Y7 whole entry): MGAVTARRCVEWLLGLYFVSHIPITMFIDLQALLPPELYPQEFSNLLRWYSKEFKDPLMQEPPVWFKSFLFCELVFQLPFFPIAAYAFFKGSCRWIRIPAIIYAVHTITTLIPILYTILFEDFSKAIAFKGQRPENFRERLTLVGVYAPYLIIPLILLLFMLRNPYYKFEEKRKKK
Assay: Displacement of (+)-[3H]DTG from sigma 2 receptor in SPRD rat liver membrane incubated for 2 hrs by liquid scintillation counting method
Type: cell membranes
Hi! Could you tag entries with Ki below 9 µM as 1.0, and those at or above as 0.0? Much appreciated.

Use these answered entries as a reference point.
smiles	classification
O=c1ccoc2ccc(OCCCCN3CCOCC3)cc12	0.0
C[C@@H]1CCCN1CCCCOc1ccc2occc(=O)c2c1	1.0
O=c1ccoc2ccc(OCCCCCN3CCOCC3)cc12	1.0
O=c1ccoc2ccc(OCCCCN3CCCC3)cc12	1.0
O=c1ccoc2ccc(OCCCN3CCCC3)cc12	0.0
O=c1ccoc2ccc(OCCN3CCOCC3)cc12	0.0

Incoming: Does the reported Ki of the following molecule sit strictly below 9 µM? `O=c1ccoc2ccc(OCCCCCN3CCCC3)cc12`
Outgoing: 1.0

Incoming: Does the reported Ki of the following molecule sit strictly below 9 µM? `O=c1ccoc2ccc(OCCN3CCCC3)cc12`
Outgoing: 0.0

Incoming: Does the reported Ki of the following molecule sit strictly below 9 µM? `O=c1ccoc2ccc(OCCCCCN3CCCCC3)cc12`
Outgoing: 1.0

Incoming: Does the reported Ki of the following molecule sit strictly below 9 µM? `O=c1ccoc2ccc(OCCCCN3CCCCC3)cc12`
Outgoing: 1.0

Incoming: Does the reported Ki of the following molecule sit strictly below 9 µM? `CN1CCN(CCCCCOc2ccc3occc(=O)c3c2)CC1`
Outgoing: 1.0

Incoming: Does the reported Ki of the following molecule sit strictly below 9 µM? `C[C@@H]1CCCN1CCCCCOc1ccc2occc(=O)c2c1`
Outgoing: 1.0

====

Readings of Ki for the listed molecules
Molecular target: Sigma non-opioid intracellular receptor 1 (Homo sapiens, UniProt Q99720)
Sequence (Q99720 whole entry): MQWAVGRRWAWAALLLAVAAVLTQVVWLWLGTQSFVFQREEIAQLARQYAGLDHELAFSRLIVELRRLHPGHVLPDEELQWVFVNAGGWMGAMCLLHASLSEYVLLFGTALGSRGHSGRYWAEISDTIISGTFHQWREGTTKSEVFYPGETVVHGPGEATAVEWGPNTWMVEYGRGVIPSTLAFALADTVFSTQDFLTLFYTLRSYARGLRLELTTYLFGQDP
Experiment: Displacement of [3H]pentazocine from human sigma 1 receptor expressed in HEK293 cell membrane incubated for 2 hrs by liquid scintillation counting method
Give me the value, and tack the unit on after it.

Example cases with answers are listed next.
smiles	Ki
O=c1ccoc2ccc(OCCCCCN3CCCCC3)cc12	213 nM
O=c1ccoc2ccc(OCCN3CCCCC3)cc12	825 nM
CN1CCN(CCOc2ccc3occc(=O)c3c2)CC1	604 nM
O=c1ccoc2ccc(OCCCCN3CCCCC3)cc12	309 nM
O=c1ccoc2ccc(OCCCCN3CCCC3)cc12	227 nM

Incoming: Please give measured Ki of the following entry: `O=c1ccoc2ccc(OCCCN3CCCCC3)cc12`
Outgoing: 65.5 nM
